# Tested System: UniProtKB Q14524
# Sequence (Q14524 whole entry): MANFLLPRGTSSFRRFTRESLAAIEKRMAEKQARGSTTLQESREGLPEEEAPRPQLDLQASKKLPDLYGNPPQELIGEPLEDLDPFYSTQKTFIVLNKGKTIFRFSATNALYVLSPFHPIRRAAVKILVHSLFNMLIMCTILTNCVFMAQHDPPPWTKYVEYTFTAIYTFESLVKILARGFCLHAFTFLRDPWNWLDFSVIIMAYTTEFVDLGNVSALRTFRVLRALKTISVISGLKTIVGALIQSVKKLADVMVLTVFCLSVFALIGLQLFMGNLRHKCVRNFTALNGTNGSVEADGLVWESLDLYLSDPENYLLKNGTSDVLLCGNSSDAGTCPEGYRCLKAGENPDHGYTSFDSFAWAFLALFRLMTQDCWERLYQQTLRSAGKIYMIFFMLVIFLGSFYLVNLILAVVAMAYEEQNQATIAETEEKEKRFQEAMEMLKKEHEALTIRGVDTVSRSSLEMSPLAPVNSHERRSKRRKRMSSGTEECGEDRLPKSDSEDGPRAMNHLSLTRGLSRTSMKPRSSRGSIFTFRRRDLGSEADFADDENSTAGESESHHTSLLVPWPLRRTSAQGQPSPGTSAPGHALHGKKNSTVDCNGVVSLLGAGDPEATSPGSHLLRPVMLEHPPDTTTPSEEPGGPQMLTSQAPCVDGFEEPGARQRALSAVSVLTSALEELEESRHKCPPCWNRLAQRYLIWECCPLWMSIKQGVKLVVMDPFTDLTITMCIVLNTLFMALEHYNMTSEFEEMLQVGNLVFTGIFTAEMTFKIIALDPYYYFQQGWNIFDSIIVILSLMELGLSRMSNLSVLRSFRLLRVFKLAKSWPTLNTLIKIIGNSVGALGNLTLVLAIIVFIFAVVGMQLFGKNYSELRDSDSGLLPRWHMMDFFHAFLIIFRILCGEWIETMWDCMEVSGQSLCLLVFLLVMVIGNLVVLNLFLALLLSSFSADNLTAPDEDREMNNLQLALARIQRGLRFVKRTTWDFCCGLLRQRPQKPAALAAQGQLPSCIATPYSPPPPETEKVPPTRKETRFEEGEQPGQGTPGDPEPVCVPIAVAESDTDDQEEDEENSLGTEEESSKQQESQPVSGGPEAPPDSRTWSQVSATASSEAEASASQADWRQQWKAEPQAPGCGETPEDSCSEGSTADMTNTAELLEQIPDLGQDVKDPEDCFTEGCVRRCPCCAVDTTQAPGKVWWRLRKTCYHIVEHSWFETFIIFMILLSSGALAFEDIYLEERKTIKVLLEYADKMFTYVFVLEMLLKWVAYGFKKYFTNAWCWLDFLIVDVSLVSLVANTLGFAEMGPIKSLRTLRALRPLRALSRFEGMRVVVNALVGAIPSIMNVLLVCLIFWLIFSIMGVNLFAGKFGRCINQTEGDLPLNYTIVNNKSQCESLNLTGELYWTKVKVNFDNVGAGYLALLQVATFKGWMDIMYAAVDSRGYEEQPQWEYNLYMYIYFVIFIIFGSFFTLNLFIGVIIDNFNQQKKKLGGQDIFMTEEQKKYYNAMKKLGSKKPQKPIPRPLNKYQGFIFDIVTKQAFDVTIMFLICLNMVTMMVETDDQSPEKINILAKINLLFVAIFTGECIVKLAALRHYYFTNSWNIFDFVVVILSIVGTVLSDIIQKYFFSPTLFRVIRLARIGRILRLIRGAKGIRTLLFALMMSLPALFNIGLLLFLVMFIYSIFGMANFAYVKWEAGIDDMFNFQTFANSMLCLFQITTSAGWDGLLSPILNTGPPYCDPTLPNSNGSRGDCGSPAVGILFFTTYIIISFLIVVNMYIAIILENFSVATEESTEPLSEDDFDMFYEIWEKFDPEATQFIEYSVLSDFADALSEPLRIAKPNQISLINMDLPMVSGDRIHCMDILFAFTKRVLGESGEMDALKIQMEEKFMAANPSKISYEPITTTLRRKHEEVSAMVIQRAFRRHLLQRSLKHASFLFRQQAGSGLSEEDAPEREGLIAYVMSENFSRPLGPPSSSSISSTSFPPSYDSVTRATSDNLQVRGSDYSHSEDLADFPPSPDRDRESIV
# Assay Procedure: Qpatch automated patch-clamp, peak Nav1.5 current inhibition, 1 Hz with 50 nM ATX-II (holding potential -100 mV)
# Format: cell-based
# Run Parameters: CHO-K1 cells stably expressing human Nav1.5, read-out: Nav1.5 IC50 (1 Hz, ATXII)
Parameter: IC50. Scope: all listed entries.
Numbers only here, please. The scale is µM.

>>> recorded_number("CC(O)(CS(N)(=O)=O)c1cccc(-c2nnn(Cc3cc(OC(F)(F)F)ccc3F)n2)c1F (single isomer, unassigned) [Example 11]")
5.6
>>> recorded_number("CC(O)(CS(N)(=O)=O)c1ccc(Cl)c(-c2nnn(Cc3cc(OC(F)(F)F)ccc3F)n2)n1 (single isomer, unassigned) [Example 27]")
4.1
>>> recorded_number("CC(O)(CS(N)(=O)=O)c1cccc(-c2cn(Cc3cc(OC(F)(F)F)ccc3F)nn2)n1 (single isomer, unassigned) [Example 60]")
16
>>> recorded_number("CC(O)(CS(N)(=O)=O)c1cccc(-c2nnn(Cc3cc(OC(F)(F)F)ccc3F)n2)c1F (single isomer, unassigned) [Example 12]")
5.2

Please look at the following compound next.
Prompt: Recorded IC50 for CC(O)(CS(N)(=O)=O)c1cccc(-c2cn(Cc3cc(OC(F)(F)F)ccc3F)nn2)n1 (single isomer, unassigned) [Example 59] with UniProtKB Q14524, please?
Response: 8.6

Data origin, for the record: patent US20250034108A1
